system: HOP-62; experiment: Antiproliferative activity against human HOP62 cells; type: functional
Observation type: log10(GI50) (log10 of the value in µM)
// units: µM (pre-log); metric: GI50; scale: log10

INSERT INTO assay_data (molecule, val) VALUES
  ('O=c1c2ccccc2cc2n1Cc1c-2nc2ccccc2c1CCl', 1.42);

# map each molecule to its log10(GI50)
1. O=c1c2ccccc2cc2n1Cc1c-2nc2ccccc2c1CCCN1CCOCC1
2. O=c1c2ccccc2cc2n1Cc1c-2nc2ccccc2c1CCCn1ccnc1
3. COc1cc2c3c(n(CCCNCCO)c(=O)c2cc1OC)-c1cc2c(cc1C3=O)OCO2 [LMP-744]

Return:
0.70
0.30
-1.70

----------
tested on: HCT-116; assay: Antiproliferative activity against human HCT116 cells; type: functional
Assign GI50 to each entry below.

// below: answered compounds
INSERT INTO results (record_smiles, val) VALUES
  ('O=c1c2ccccc2cc2n1Cc1c-2nc2ccccc2c1CCCN1CCOCC1', '3.9 µM'),
  ('CN1CCN(Cc2c3c(nc4ccccc24)-c2cc4ccccc4c(=O)n2C3)CC1', '1.9 µM');

As a next step, examine the compound that follows.
Enquiry: Using the record for O=c1c2ccccc2cc2n1Cc1c-2nc2ccccc2c1CN1CC[C@H](O)C1 , state its measured GI50.
Return: 9 µM

----------
Could you please report measured inhibition for the items listed next?
biological target: DNA topoisomerase 1 (Homo sapiens) (UniProt P11387); assay: Inhibition of human recombinant topoisomerase 1 assessed as DNA cleavage relative to 1 uM camptothecin
Number first, unit second: that is the form wanted.

# example entries with known answers
INSERT INTO results (record_smiles, measurement_target, val) VALUES
  ('O=c1c2ccccc2cc2n1Cc1c-2nc2ccccc2c1CNCCCn1ccnc1', 'DNA topoisomerase 1 (Homo sapiens) (UniProt P11387)', '50%'),
  ('O=c1c2ccccc2cc2n1Cc1c-2nc2ccccc2c1CNCCO', 'DNA topoisomerase 1 (Homo sapiens) (UniProt P11387)', '75%'),
  ('O=c1c2ccccc2cc2n1Cc1c-2nc2ccccc2c1CCCn1ccnc1', 'DNA topoisomerase 1 (Homo sapiens) (UniProt P11387)', '75%'),
  ('NCc1c2c(nc3ccccc13)-c1cc3ccccc3c(=O)n1C2', 'DNA topoisomerase 1 (Homo sapiens) (UniProt P11387)', '50%'),
  ('O=c1c2ccccc2cc2n1Cc1cc3ccccc3nc1-2', 'DNA topoisomerase 1 (Homo sapiens) (UniProt P11387)', '50%'),
  ('NCCCc1c2c(nc3ccccc13)-c1cc3ccccc3c(=O)n1C2', 'DNA topoisomerase 1 (Homo sapiens) (UniProt P11387)', '20%');

Below: the item to evaluate.
Enquiry: Report inhibition under test system DNA topoisomerase 1 (Homo sapiens) (UniProt P11387) for CN(C)CCCc1c2c(nc3ccccc13)-c1cc3ccccc3c(=O)n1C2 .
Return: 75%

----------
system: HOP-62; test: Antiproliferative activity against human HOP62 cells; type: functional
I'd be grateful if you could share measured GI50 for these entries.
Numbers only, in µM.

Illustrative cases are given below, each with its answer.
INSERT INTO measurements (record_smiles, val) VALUES
  ('NCc1c2c(nc3ccccc13)-c1cc3ccccc3c(=O)n1C2', 9.8),
  ('COc1cc2c3c(n(C)c(=O)c2cc1OC)-c1cc2c(cc1C3=O)OCO2', 1.3);

Enquiry: Indicate its recorded GI50; the molecule in question is CC[C@@]1(O)C(=O)OCc2c1cc1n(c2=O)Cc2cc3ccccc3nc2-1
Return: 0.01

----------
Molecular target: DNA topoisomerase 1 (Homo sapiens)
Sequence (whole entry): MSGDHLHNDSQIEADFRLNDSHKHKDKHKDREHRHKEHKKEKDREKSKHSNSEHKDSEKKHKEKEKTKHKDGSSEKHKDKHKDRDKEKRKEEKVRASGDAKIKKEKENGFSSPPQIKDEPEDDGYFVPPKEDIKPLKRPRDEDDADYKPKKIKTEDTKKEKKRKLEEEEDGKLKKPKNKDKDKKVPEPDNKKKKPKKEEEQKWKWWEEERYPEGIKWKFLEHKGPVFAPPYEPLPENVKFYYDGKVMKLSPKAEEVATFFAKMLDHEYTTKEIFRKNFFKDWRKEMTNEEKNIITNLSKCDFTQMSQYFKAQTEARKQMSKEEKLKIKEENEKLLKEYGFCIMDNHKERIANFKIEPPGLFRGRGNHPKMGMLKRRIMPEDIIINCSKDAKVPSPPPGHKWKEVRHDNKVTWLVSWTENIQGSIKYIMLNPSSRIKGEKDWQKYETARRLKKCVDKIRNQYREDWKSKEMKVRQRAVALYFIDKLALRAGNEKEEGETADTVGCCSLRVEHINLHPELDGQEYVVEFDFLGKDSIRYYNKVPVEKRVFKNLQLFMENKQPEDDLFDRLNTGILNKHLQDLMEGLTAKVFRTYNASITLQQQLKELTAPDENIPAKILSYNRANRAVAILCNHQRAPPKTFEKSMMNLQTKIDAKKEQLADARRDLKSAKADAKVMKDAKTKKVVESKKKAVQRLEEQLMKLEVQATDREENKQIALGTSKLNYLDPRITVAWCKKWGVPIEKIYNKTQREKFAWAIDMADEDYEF
Assay: Inhibition of human recombinant topoisomerase 1 assessed as DNA cleavage relative to 1 uM camptothecin
Give measured inhibition for each item. Keep answers brief.
One number for each entry, in %.

Below are worked cases with known answers.
INSERT INTO assay_data (compound, val) VALUES
  ('COc1cc2c3c(n(C)c(=O)c2cc1OC)-c1cc2c(cc1C3=O)OCO2', 50),
  ('O=c1c2ccccc2cc2n1Cc1c-2nc2ccccc2c1CCCN1CCOCC1', 50),
  ('CN1CCN(Cc2c3c(nc4ccccc24)-c2cc4ccccc4c(=O)n2C3)CC1', 75),
  ('O=c1c2ccccc2cc2n1Cc1c-2nc2ccccc2c1CN1CC[C@H](O)C1', 75),
  ('O=c1c2ccccc2cc2n1Cc1c-2nc2ccccc2c1CN1CCOCC1', 50),
  ('O=c1c2cccc(CO)c2cc2n1Cc1cc3ccccc3nc1-2', 20),
  ('CN(C)Cc1c2c(nc3ccccc13)-c1cc3ccccc3c(=O)n1C2', 75),
  ('COc1cc2cc3n(c(=O)c2cc1OC)Cc1cc2ccccc2nc1-3 [DIMETHOXYAROMATHECIN]', 20),
  ('O=c1c2ccccc2cc2n1Cc1c-2nc2ccccc2c1Cn1ccnc1', 75);

For the next question, use this compound.
Enquiry: Answer with reported inhibition of O=c1c2ccccc2cc2n1Cc1c-2nc2ccccc2c1CCl
Return: 20

----------
I'd appreciate it if you could supply GI50 values for the items below.
tested on: SN12C; test: Antiproliferative activity against human SN12C cells; assay type: functional
Give bare numbers, in µM.

INSERT INTO measurements (record_smiles, measurement_target, val) VALUES
  ('O=c1c2ccccc2cc2n1Cc1c-2nc2ccccc2c1CCCN1CCOCC1', 'SN12C', 5.9),
  ('O=c1c2ccccc2cc2n1Cc1c-2nc2ccccc2c1CCCNCCO', 'SN12C', 4.1),
  ('O=c1c2ccccc2cc2n1Cc1c-2nc2ccccc2c1CCCn1ccnc1', 'SN12C', 4.5),
  ('O=c1c2ccccc2cc2n1Cc1c-2nc2ccccc2c1CNCCO', 'SN12C', 2.7),
  ('O=c1c2ccccc2cc2n1Cc1c-2nc2ccccc2c1CNCCCn1ccnc1', 'SN12C', 3.5);

Field: GI50. Fill in for each record below.
1. O=c1c2ccccc2cc2n1Cc1c-2nc2ccccc2c1CN1CC[C@H](O)C1
2. COc1cc2c3c(n(C)c(=O)c2cc1OC)-c1cc2c(cc1C3=O)OCO2

Return:
[16.9, 68]

----------
tested on: SN12C; assay: Antiproliferative activity against human SN12C cells; assay type: functional
Consider the following compounds; for each one, report its GI50.
One number for each entry, in nM.

INSERT INTO results (record_smiles, measurement_target, unit_label, val) VALUES
  ('O=c1c2ccccc2cc2n1Cc1c-2nc2ccccc2c1Cn1ccnc1', 'SN12C', 'nM', 21500),
  ('NCc1c2c(nc3ccccc13)-c1cc3ccccc3c(=O)n1C2', 'SN12C', 'nM', 2900);

Enquiry: Specify the recorded GI50 for CC[C@@]1(O)C(=O)OCc2c1cc1n(c2=O)Cc2cc3ccccc3nc2-1 , system: SN12C.
Return: 20

----------
tested on: HOP-62; experiment: Antiproliferative activity against human HOP62 cells; assay type: functional
Observation type: GI50 (µM)
Give bare numbers, in µM.

INSERT INTO assay_data (record_smiles, val) VALUES
  ('O=c1c2ccccc2cc2n1Cc1c-2nc2ccccc2c1CNCCO', 3.5),
  ('O=c1c2ccccc2cc2n1Cc1c-2nc2ccccc2c1CN1CC[C@H](O)C1', 28.6),
  ('O=c1c2ccccc2cc2n1Cc1c-2nc2ccccc2c1Cn1ccnc1', 10);

Provide each entry's GI50 from the list below.
1. O=c1c2ccccc2cc2n1Cc1c-2nc2ccccc2c1CCCNCCO
2. O=c1c2ccccc2cc2n1Cc1c-2nc2ccccc2c1CNCCCn1ccnc1

Return:
[1.2, 4.7]
